// each record: one item and its GI50 for HT29
Your answer is read as nM, so omit the unit and give the number.

Examples from the recorded data:
1. COc1ccc2[nH]c3c(c2c1)C[C@H](CO)N[C@]31CS[C@@H]2c3c(OC(C)=O)c(C)c4c(c3[C@H](COC1=O)N1[C@@H]2[C@@H]2N[C@@H](Cc3cc(C)c(OC)c(O)c32)[C@@H]1O)OCO4    2
2. COc1ccc2[nH]c3c(c2c1)CCN[C@]31CS[C@@H]2c3c(OC(C)=O)c(C)c4c(c3[C@H](COC1=O)N1[C@@H]2[C@@H]2N[C@@H](Cc3cc(C)c(OC)c(O)c32)[C@@H]1C#N)OCO4    5.13
3. COc1c(C)cc2c(c1O)[C@H]1N[C@@H](C2)[C@H](O)N2[C@H]1[C@@H]1SC[C@]3(NCCc4c3oc3ccccc43)C(=O)OC[C@H]2c2c3c(c(C)c(OC(C)=O)c21)OCO3    8.76

# input for lookup
Record request: GI50 value, item COc1ccc2[nH]c3c(c2c1)C[C@H](CO)N[C@]31CS[C@@H]2c3c(OC(C)=O)c(C)c4c(c3[C@H](COC1=O)N1[C@@H]2[C@@H]2N[C@@H](Cc3cc(C)c(OC)c(O)c32)[C@@H]1C#N)OCO4
0.864
